System: SmLux
test-summary: Computationally generated LgLux variants expressed in E. coli, tested in lysates with SmLux and substrate 1c
Type: biochemical
condition-description: 50 uM substrate 1c, before SmLux peptide addition
Experimental: LgLux sequences were designed computationally, and their activity measured as depicted schematically in FIG. 45. A library of the computationally generated LgLux variants were expressed in E. coli and tested in lysates. 20 uM of SmLux and 50 uM of substrate 1c was used for the screening. LgLux_4039 sequence is as set forth in SEQ ID NO:2773. […]
The molecules listed here are annotated with their Baseline Signal (Normalized by expression).

Use the examples below as a reference point.
molecule="5123 (protein) MTPEKIRENVENFYAALASGDLEKAKALFDPGTTITLWDGTTFTSLEEFLAWFEKQFKASKDAKREIKSLEIEGDTVKVLVRLTYTVNGKEKTVDLLQLLKFV" assay_value=145.6
molecule="5295 (protein) MTPEEIRANVRAFYAALASGDLAAAKALFDPGVTITLWDGTTFTSVEEFRAWFEEQFETSKDALREIVSMEVEGDTVRVLVRLTFTRNGEEKVVDLLQLFKFV" assay_value=186.4
molecule="5290 (protein) MTPEEIIENVRRFYAALASGDLETAKSLFDPGVTITLWDGTTFTSVEEFRAWFEAQFQTSKDALREIVSIEVEGDVVRVLVRLTFTRDGQTQEVDLLQLFKFV" assay_value=162.2
molecule="5103 (protein) MTPEQRIANVRAFYAALASGDLEAAKALFDPGVTITLWDGTTFTSLEEFLAWFEKQFDASKDAKREIVDIEVEGDVVRVLVRLTYTKDGKEKVVDLLQLLKFV" assay_value=193.2
molecule="5283 (protein) MTPEEIRANVERFYAALASGDLETAKALFDPGVTITLWDGTTFTSVEEFRKWFEEQFETSKDALREIVSMEVEGDTVRVLVRLTFVRNGEEKVVDLLQLFKFV" assay_value=141.4

In plain terms, 5121 (protein) MTPEEIKENVKKFYEALASGDLETAKSLFDPGTTITLWDGTTFTSLEEFLAWFEKQFDASKDAKREIVSMEIKGNEVKVLVRLTYTKDGKEQTVDLLQLLKFV has a documented Baseline Signal (Normalized by expression) of 126.6

The recorded Baseline Signal (Normalized by expression) for 5106 (protein) MTEEEIIANVEKFYAALASGDLETAKALFDPGTTITLWDGTTFTSLEEFLAWFEKQFKASKDAKREIVSIEVEGDTVKVLVRLTYTVDGKEKVVDLLQLLKFV is 169.8

The measured Baseline Signal (Normalized by expression) associated with 5293 (protein) MTPEEIRANVRRFYAALASGDLATAEALFDPGVTITLWDGTTFTSVAEFRAWFEKQFKTSKDALREIESMEIEGDTVRVLVRLTFVRDGKEQVVDLLQLFKFV reads 166.2
